- System: Mycobacterium tuberculosis
- protocol: Antimicrobial activity against Mycobacterium tuberculosis H37Rv ATCC 27294 after 5 days by microdilution method
- Type: functional
- setupConditions: H37Rv ATCC 27294, 120 h
Known MIC of a selection of molecules
Answer format: numeric, µM implied, no suffix.

Before answering, review these 4 worked examples.
Cc1cc(OC[C@@H]2CCCO2)ccc1-c1ccc(COc2ncccc2C(N)=O)nc1; 1.2
COc1ccc(-c2ccc(COc3ncccc3C(N)=O)nc2)c(C)c1; 22
NC(=O)c1cccnc1OCc1ccc(-c2ccc(OCC3CCCO3)cc2Cl)cn1 (stereo unspecified); 1.1
COCCOc1ccc(-c2ccc(COc3ncccc3C(=O)NC3CCN(C)CC3)nc2)c(C)c1; 8.1

Pending molecule:
(Q) Provide only the value of recorded MIC for `COc1ccc(-c2ccc(COc3ncccc3C(N)=O)nc2)c(F)c1`
(A) 16.9

---

- protocol: Selectivity index, ratio of MIC for human THP1 cells to MIC for Mycobacterium tuberculosis H37Rv ATCC 27294
- Type: toxicity, cell-based, THP-1
- setupConditions: read-out: Selectivity Index
experimentalEndpoint: selectivity ratio

(Q) Complete the entry with selectivity ratio for `CC(C)OCCOc1ccc(-c2cnc(COc3ncccc3C(N)=O)nc2)c(Cl)c1`
(A) > 2500

---

// log10 of MIC lookup, one value per entry
- Test system: Mycobacterium tuberculosis
- protocol: Antimicrobial activity against Mycobacterium tuberculosis H37Rv ATCC 27294 after 5 days by microdilution method
- Format: functional
- setupConditions: H37Rv ATCC 27294, 120 h
Base-10 log of MIC, unit µM.

Here is how some compounds turned out for log10 of MIC.
Cc1cc(OCC2CCCO2)ccc1-c1ccc(COc2ncccc2C(N)=O)nc1 (stereo not given); 0.67
COc1ccc(-c2ccc(COc3ncccc3C(N)=O)nc2)c(Cl)c1; 0.73
CNS(=O)(=O)c1cccnc1OCc1ccc(-c2ccc(OCCOC)cc2C)cn1; 1.70
COCCOc1ccc(-c2ccc(COc3nccc(OC)c3C(N)=O)nc2)c(C)c1; 0.79
COCCOc1ccc(-c2cnc(COc3ncccc3C(N)=O)nc2)c(Cl)c1; -0.33

(Q) Look up and state reported log10 of MIC for `COCCOc1ccc(-c2ccc(COc3ncccc3C(=O)NCCO)nc2)c(C)c1`
(A) 0.65

(Q) Note log10 of MIC for the compound shown: `Cc1cc(OCCN2CCOCC2)ccc1-c1ccc(COc2ncccc2C(N)=O)nc1`
(A) 0.95

(Q) Assign log10 of MIC to the following record: `COCCOc1ccc(-c2ccc(COc3ncccc3C(N)=O)nc2)c(C)c1`
(A) -0.22

(Q) Give me measured log10 of MIC, please, for this compound: `CC(C)OCCOc1ccc(-c2cnc(COc3ncccc3C(N)=O)nc2)c(Cl)c1`
(A) -0.92

(Q) Quote log10 of MIC reported for `Cc1cc(OC[C@H]2CCCO2)ccc1-c1ccc(COc2ncccc2C(N)=O)nc1` please.
(A) 0.67

---

- subjectOfTest: Cytochrome P450 2C9 (Homo sapiens, UniProt P11712)
- Sequence (P11712 whole entry): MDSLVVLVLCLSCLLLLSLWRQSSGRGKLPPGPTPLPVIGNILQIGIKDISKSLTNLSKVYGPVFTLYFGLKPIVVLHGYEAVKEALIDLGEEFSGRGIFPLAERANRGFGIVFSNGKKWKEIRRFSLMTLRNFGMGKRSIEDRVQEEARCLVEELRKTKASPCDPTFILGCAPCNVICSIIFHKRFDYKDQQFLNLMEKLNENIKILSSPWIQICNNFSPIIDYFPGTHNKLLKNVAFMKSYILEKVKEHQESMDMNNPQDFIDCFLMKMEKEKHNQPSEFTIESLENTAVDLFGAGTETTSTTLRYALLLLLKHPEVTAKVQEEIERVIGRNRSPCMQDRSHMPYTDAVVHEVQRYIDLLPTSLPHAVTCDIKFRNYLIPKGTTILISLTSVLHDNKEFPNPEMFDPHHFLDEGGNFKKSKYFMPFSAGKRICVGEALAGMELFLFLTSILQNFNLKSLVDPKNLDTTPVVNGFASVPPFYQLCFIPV
experimentalEndpoint: IC50 (µM)
All answers are understood in µM, so give the number only.

(Q) Fill in IC50 for `CC(C)OCCOc1ccc(-c2cnc(COc3ncccc3C(N)=O)nc2)c(Cl)c1` tested with Cytochrome P450 2C9 (Homo sapiens, UniProt P11712).
(A) 19
